tested on: Klebsiella aerogenes DSM 30053; assay: fold change of Cadaverine concentration vs plate DMSO controls (fold change (ratio)); higher = more amine produced, active = hit call of the paper (significant change in both replicates, either direction); settings: incubation time: 27 h, anaerobic, 37 °C
Structures can show the parent of a compound that is named as a salt.
Measurement label: fold change of Cadaverine concentration
Form rule: numeric answer, no unit written next to it.

Cc1ccnc(NS(=O)(=O)c2ccc(N)cc2)n1 [Sulfamerazine] (20 µM) | 1.02

**Query** Please look up its fold change of Cadaverine concentration: CN1CCCC(n2nc(Cc3ccc(Cl)cc3)c3ccccc3c2=O)CC1 (centres undefined) [Azelastine hydrochloride] (20 µM)
**Result** 0.976

**Query** Now give it for C[C@H](Cc1cc2c(c(C(N)=O)c1)N(CCCO)CC2)NCCOc1ccccc1OCC(F)(F)F [Silodosin] (20 µM) too.
**Result** 1.02

**Query** Let us now turn to O=C(O)Cc1ccccc1Oc1ccc(Cl)cc1Cl [Fenclofenac] (20 µM)
**Result** 1.01

----------
test system: Clostridium sporogenes DSM 1664; test: fold change of Tryptamine concentration vs plate DMSO controls (fold change (ratio)); higher = more amine produced, active = hit call of the paper (significant change in both replicates, either direction); settings: incubation time: 27 h, anaerobic, 37 °C
Known fold change of Tryptamine concentration of a selection of compounds

Completed entries (count: 3):
CCCCOC(=O)c1ccccc1Nc1cccc(C(F)(F)F)c1 [Ufenamate] (20 µM) | 1.03 (inactive)
COc1ccc2[nH]c([S+]([O-])Cc3ncc(C)c(OC)c3C)nc2c1 (configuration not stated) [Omeprazole] (20 µM) | 1.02 (inactive)
NCCCC(O)(P(=O)(O)O)P(=O)(O)O [Alendronate sodium] (20 µM) | 1.1 (inactive)

Now look at this one.
**Query** Lab request: please report fold change of Tryptamine concentration under test system Clostridium sporogenes DSM 1664 for CC[C@H](C)C(=O)O[C@H]1C[C@H](O)C=C2C=C[C@H](C)[C@H](CC[C@@H](O)C[C@@H](O)CC(=O)O)[C@H]21 [Pravastatin] (20 µM)
**Result** 1.12 (inactive)

----------
system: Klebsiella aerogenes DSM 30053; test: fold change of Histamine concentration vs plate DMSO controls (fold change (ratio)); higher = more amine produced, active = hit call of the paper (significant change in both replicates, either direction); details: incubation time: 27 h, anaerobic, 37 °C
Structures can show the parent of a compound that is named as a salt.
Label Satisfied when fold change of Histamine concentration is at or above 1; anything below gets Not satisfied.

CN(C)CCCO[C@@H]1[C@H]2OC(C)(C)O[C@H]2O[C@@H]1[C@H](O)CO [Amiprilose hydrochloride] (20 µM) | Satisfied
Cc1cc(C)nc(NS(=O)(=O)c2ccc(N)cc2)n1 [Sulfamethazine sodium salt] (20 µM) | Satisfied
Cc1ncc([N+](=O)[O-])n1CC(C)O (configuration not stated) [Secnidazole] (20 µM) | Not satisfied
CCCCc1oc2ccccc2c1C(=O)c1cc(I)c(OCCN(CC)CC)c(I)c1 [Amiodarone hydrochloride] (20 µM) | Satisfied
CN1C(C(=O)Nc2ccccn2)=C(O)c2sccc2S1(=O)=O [Tenoxicam] (20 µM) | Satisfied
OC[C@@H](O)[C@@H](O)[C@@H](O)[C@@H](O)CO [Allitol] (50 µM) | Not satisfied

**Query** Hi, just wondering whether C[C@H](N)[C@H](O)c1cccc(O)c1 [Metaraminol bitartrate] (20 µM) shows fold change of Histamine concentration of 1 or higher.
**Result** Satisfied

**Query** Follow-up item: CC(C)(C)c1ccc(C(O)CCCN2CCC(C(O)(c3ccccc3)c3ccccc3)CC2)cc1 (configuration not stated) [Terfenadine] (20 µM)
**Result** Not satisfied

**Query** Subsequent entry: Cc1c(C)c2c(c(C)c1O)CCC(C)(COc1ccc(CC3SC(=O)NC3=O)cc1)O2 (configuration not stated) [Troglitazone] (20 µM)
**Result** Not satisfied
